Taken from paper PMC9482650.

Target: T1, RAPGEF6, Q8TEU7
T1 sequence (Q8TEU7 525-625, limits assumed, looked up): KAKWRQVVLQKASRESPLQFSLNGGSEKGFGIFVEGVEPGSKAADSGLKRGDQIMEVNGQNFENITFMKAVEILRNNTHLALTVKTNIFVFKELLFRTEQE
Test: holdup assay
Parameters: key: below the threshold = too weak to quantify, mostly under pKd 3.1 to 4
Conditions: plain residues with an end cap or a label only (N-terminal biotin on a linker: ttds)

BINDER: SVWLRKETRV [CYSLTR2, Q9NS75]
pKd: 3.44
--
BINDER: GQDSREETQL [KCNT2, Q6UVM3]
pKd: below the threshold
--
BINDER: IYVPEAQTRL [DLGAP4, Q9Y2H0]
pKd: below the threshold
--
BINDER: IDNDTESTAL [ARHGAP17, Q68EM7]
pKd: below the threshold
